# System: MUC3 mRNA
# method-description: MUC3 mRNA expression in intestinal epithelial cell culture assay
# Type: cell-based, human
# experimental-parameters: peptide comparison; 30 minutes at 37° C. at 50 μg/ml; Control = 100.000
quantity-name: MUC3 mRNA/28s RNA ratio, Mean

>>> value_observed("GKFAWEGMTL (randomized experimental control sequence) [Total Scramble, control peptide with the amino acids of the entire N-Terminal peptide in random order, reference compound]")
109.333
>>> value_observed("DAAQRGPQQA (peptide of residues in C-terminal region of bovine SAA used as experimental control) [control 10 amino acid peptide, first 7 residues from the C-terminal region of bovine SAA, reference compound]")
111.333
>>> value_observed("MWGTFLKEAG (N-terminal region of bovine colostrum SAA) [10 amino acid N-terminal portion of mature bovine colostrum-SAA containing the conserved TFLK]")
174.833
>>> value_observed("MWGLTKFEAG (limited scramble for experiment) [N-terminal peptide in which the four TFLK amino acids were scrambled in their order, reference compound]")
95.000
